Assay: Single dose intravenous and oral PK in Beagle dogs (citrate salt)
Assay type: in vivo
Set-up: unit not given here
Conditions: both sexes, Beagle, dog, whole blood; IV 1 mg/kg
measurement_label: AUC(0-inf)
// return just the number, without any unit appended

AUC(0-inf) measured on CC(C)C[C@@H]1NCCN([C@@H](CC(C)C)C(=O)N2CCC3(C[C@@H]2C)OCC(CN2CCCC2)CO3)C1=O (stereo partly shown) [Compound 1] = 0.089

----------
Test: Single dose oral gavage or intravenous PK in female cynomolgus monkeys, plasma
Type: in vivo
Conditions: female, cynomolgus monkey, plasma; po 12 mg/kg
Description: The objective of the study was to determine the PK profile of Compound 1 following a single oral gavage or intravenous injection administration on 5 different occasions to female cynomolgus monkeys. Compound 1, was administered as consecutive single doses on 5 occasions, separated by a washout period, by either oral gavage (4 and 12 mg/kg, Days 1 and 8) or by slow bolus intravenous (IV) injection (0.2 and 0.6 mg/kg, Days 15 and 22) to a group of female monkeys. […]
measurement_label: AUC(0-t) (ng·h/mL)
Kindly answer with a numeric value in ng·h/mL, unit omitted.

AUC(0-t) measured on CC(C)C[C@@H]1NCCN([C@@H](CC(C)C)C(=O)N2CCC3(C[C@@H]2C)OCC(CN2CCCC2)CO3)C1=O (stereo partly shown) [Compound 1] = 130
